Tested on: Quadruplex DNA
Test name: Stabilization of F21T telomeric G-quadruplex DNA (unknown origin) at 1 uM in presence of non-fluorescent duplex DNA ds26 by FRET assay
Assay type: nucleic-acid assay
The source made the active and inactive calls. No cut-off for these calls is given here.
Labels: yes (1) for active, no (0) for inactive

{"Query smiles": "CN(C)CCCNc1cc2nc(/C=C3\\C(=O)Nc4cc(N5CCN(C)CC5)c(F)cc43)[nH]c(=O)c2cc1F", "Assigned label": "yes (1)"}
{"Query smiles": "CN(C)CCCNc1c2ccccc2nc2c1[nH]c1ccccc12", "Assigned label": "no (0)"}
{"Query smiles": "CN(C)CCCNc1cc2nc(/C=C3\\C(=O)Nc4cc(N5CCN(C)CC5)ccc43)[nH]c(=O)c2cc1F", "Assigned label": "yes (1)"}
{"Query smiles": "CN(C)CCCNc1ccc2c(=O)[nH]c(/C=C3\\C(=O)Nc4ccccc43)nc2c1", "Assigned label": "yes (1)"}

###

Test name: Stabilization of F10T hairpin duplex DNA (unknown origin) assessed as change in melting temperature at 1 uM by FRET assay
Parameter: ΔTm (°C)

{"Query smiles": "CN(C)CCCNc1ccc2c(=O)[nH]c(/C=C3\\C(=O)Nc4cc(N5CCN(C)CC5)ccc43)nc2c1", "Parameter": "ΔTm", "Reading unit": "°C", "Numeric readout": 0.1}
{"Query smiles": "CCN(CC)CCCNc1cc2nc(/C=C3\\C(=O)Nc4cc(N5CCOCC5)c(F)cc43)[nH]c(=O)c2cc1F", "Parameter": "ΔTm", "Reading unit": "°C", "Numeric readout": 0.1}
{"Query smiles": "CN(C)CCCNc1c2ccccc2nc2c1[nH]c1ccccc12", "Parameter": "ΔTm", "Reading unit": "°C", "Numeric readout": 5.2}

###

System: U2OS
Test name: Antiproliferative activity against human U2OS cells after 48 hrs by MTT assay
Type: functional, cell-based
pIC50: −log10 of the molar value.
Parameter: pIC50

{"Query smiles": "CN(C)CCCN(C)c1cc2c(cc1F)/C(=C/c1nc3cc(N4CCN(C)CC4)c(F)cc3c(=O)[nH]1)C(=O)N2", "Parameter": "pIC50", "Numeric readout": 5.03}
{"Query smiles": "CN(C)CCCNc1cc2nc(/C=C3\\C(=O)Nc4cc(N5CCN(C)CC5)c(F)cc43)[nH]c(=O)c2cc1F", "Parameter": "pIC50", "Numeric readout": 5.05}
{"Query smiles": "CCN(CC)CCCNc1cc2nc(/C=C3\\C(=O)Nc4ccccc43)[nH]c(=O)c2cc1F", "Parameter": "pIC50", "Numeric readout": 4.90}
{"Query smiles": "CN(C)CCCNc1cc2nc(/C=C3/C(=O)Nc4cc(N5CCN(C)CC5)ccc43)n(C)c(=O)c2cc1F", "Parameter": "pIC50", "Numeric readout": 4.90}
{"Query smiles": "CCN(CC)CCCNc1cc2nc(/C=C3\\C(=O)Nc4cc(N5CCN(C)CC5)ccc43)[nH]c(=O)c2cc1F", "Parameter": "pIC50", "Numeric readout": 5.12}

###

Target of assay: Quadruplex DNA
Test name: Binding affinity to HTG21 telomeric G-quadruplex DNA (unknown origin) by SPR method

{"Query smiles": "CN1CCN(c2ccc3c(c2)NC(=O)/C3=C\\c2nc3cc(NCCN4CCCCC4)c(F)cc3c(=O)[nH]2)CC1", "Target of assay": "Quadruplex DNA", "Qualifier symbol": ">", "Kd (µM)": 40}
{"Query smiles": "CN(C)CCCN(C)c1cc2c(cc1F)/C(=C/c1nc3cc(N4CCN(C)CC4)c(F)cc3c(=O)[nH]1)C(=O)N2", "Target of assay": "Quadruplex DNA", "Qualifier symbol": ">", "Kd (µM)": 40}
{"Query smiles": "CN1CCN(c2cc3c(cc2F)/C(=C/c2nc4cc(NCCCN5CCCC5)c(F)cc4c(=O)[nH]2)C(=O)N3)CC1", "Target of assay": "Quadruplex DNA", "Qualifier symbol": "=", "Kd (µM)": 7.9}
{"Query smiles": "CN(C)CCCN(C)c1cc2c(cc1F)/C(=C/c1nc3cc(NCCN(C)C)c(F)cc3c(=O)[nH]1)C(=O)N2", "Target of assay": "Quadruplex DNA", "Qualifier symbol": "=", "Kd (µM)": 14}
{"Query smiles": "CCN(CC)CCCNc1cc2nc(/C=C3\\C(=O)Nc4ccccc43)[nH]c(=O)c2cc1F", "Target of assay": "Quadruplex DNA", "Qualifier symbol": ">", "Kd (µM)": 40}

Reference for the values: ChEMBL document CHEMBL4177752
